experiment: gradient 5% acetonitrile 3 min, to 50% in 2 min, to 85% in 15 min, held 3 min, 100 µL/min; conditions: column: Zorbax Extend-C18 2.1 x 50 mm; eluents: water / acetonitrile, 0.1% formic acid
Please go through the items and note down their RP-LC retention time.
Enter your answer as a number in s; do not include the unit.

According to the records, this compound Cc1cccc(N(C)C(=O)CN2C(=O)NC3(CCCCC3)C2=O)c1 displays RP-LC retention time of 784

Form field RP-LC retention time, entry CC(C)C(=O)Nc1nc(-c2ccc3c(c2)N(C)C(=O)CO3)cs1 : 787

// field: RP-LC retention time; key: Cc1cccc(NC(=O)Cn2c(-c3cnccn3)nc(C)c(C)c2=O)c1C ; value = 743

Per the record, Cc1ccc(Nc2cc(N3CCC(C(=O)N4CCSCC4)CC3)ncn2)cc1 has RP-LC retention time of 682

For Cc1ccccc1CNC1=NCCNC12CCN(S(=O)(=O)c1ccc(Cl)cc1)CC2 the compound record lists RP-LC retention time as 753

Record CCNC(=O)c1cc(-c2ccc(F)cc2)n[nH]1 , field RP-LC retention time: 695

Consider CCS(=O)(=O)N1CC(=O)N(c2cccc(F)c2)C(C)(C(=O)NC2CCCCCCC2)C1 (centres undefined) . Its measured RP-LC retention time is 956

For reference, reported RP-LC retention time for CNC(=O)[C@@H]1CN(S(=O)(=O)c2ccc(Cl)s2)C[C@H]1c1n[nH]c(C)n1 stands at 656

Value of measured RP-LC retention time for the entry O=C(CCCN1CCC2(CC1)C(=O)N(Cc1cccc(F)c1)CN2c1ccccc1)c1ccc(F)cc1 : 981

For record O=C(NC1CCCC1)C1CCN(C(=O)c2ncn3c2COC(c2ccc(Cl)cc2)C3)CC1 (centres undefined) the listed RP-LC retention time is 780

For COc1ccc(-n2c(=O)n(C)c(=O)c3cc(C(=O)NCc4ccc(C)cc4)cnc32)cc1 the compound record lists RP-LC retention time as 888

Form: compound = Cc1csc(C(=O)Nc2ccc(N3CCCN(C(=O)C4CC4)CC3)cc2)c1 ; RP-LC retention time = 735

Kindly note the recorded RP-LC retention time for COc1ccc(Cl)cc1S(=O)(=O)NCC1CCN(c2ncccn2)CC1 , which is 772

Input CCc1ccccc1NC(=O)Cn1c(C(C)C)nc2c(c1=O)CCN(Cc1ccccc1)C2 . Output RP-LC retention time: 699

Lookup result for CCCCN(C)C(=O)C1CCCCc2nnc(C(C)C)n21 (centres undefined) ; measured RP-LC retention time: 666

// field: RP-LC retention time; key: CSc1cccc(NC(=O)C2CCN(S(=O)(=O)c3cn(C)cn3)CC2)c1 ; value = 736

Looking up Cc1ccc(C)c(N2CCN(c3ccnc(SCC(=O)NCc4ccc(F)cc4)n3)CC2)c1 , I found its RP-LC retention time recorded as 908

Summary for this compound, COc1ccc(N2C(=O)CN(C(C)c3ccccc3)[C@H]3CS(=O)(=O)C[C@H]32)cc1 (some centres undefined) : RP-LC retention time is 808

// field: RP-LC retention time; key: O=C(NC1CCCCC1)c1ccc2c(c1)NC(=O)C1CCCCN21 (centres undefined) ; value = 807

RP-LC retention time recorded for this compound, O=C(c1cc(C2CC2)[nH]n1)N1CC(n2cc(COc3ccc(F)cc3)nn2)C1 , is 735

Record CN(C)[C@@H]1CN(C(=O)COc2ccc(Cl)cc2)C[C@H]1CO . Reported RP-LC retention time: 598

The compound listed as O=C(O)CSc1ccc(NC(=O)Nc2ccccc2F)cc1 has a reported RP-LC retention time of 842

Entry O=C(Nc1nnc(-c2cccs2)o1)c1ccc([N+](=O)[O-])o1 ; RP-LC retention time = 677

Consider CC(C)(C)c1noc(-c2cccnc2-n2cnc(C(=O)Nc3cccc(F)c3)c2)n1 . Its measured RP-LC retention time is 1000

Value of measured RP-LC retention time for the entry Cc1ccc(S(=O)(=O)N2CCCCCC2c2nnc(C)o2)c(C)c1 (centres undefined) : 862

O=C(NCCc1ccsc1)C1CC(=O)N(c2ccc(F)cc2)C1 (centres undefined) yielded RP-LC retention time of 698

The compound COc1cc(NC(=O)N2CC3CCCN3c3ccccc32)cc(OC)c1OC (centres undefined) showed RP-LC retention time equal to 702

Reported RP-LC retention time of CC(C)Cn1nc2ccc(S(=O)(=O)N3CCOCC3)cn2c1=O : 732

Lab note: measured RP-LC retention time of COc1ccc(C)cc1NC(=O)Cn1cnc2c(sc3nc(-c4ccccc4)ccc32)c1=O was 1090

Lab note: measured RP-LC retention time of Cc1cnc(CC2CCN(S(=O)(=O)c3cccc(F)c3)C2)n1C(C)C (centres undefined) was 671

// RP-LC retention time lookup, compound = Cc1nc2c(sc3nc(-c4ccccc4)ccc32)c(=O)n1CC(=O)Nc1ccc2c(c1)OCO2 , result: 985

The compound COc1ccc(C(=O)Oc2ccc(/C=C/c3ccncc3)cc2OC)cc1OC showed RP-LC retention time equal to 606

compound CCCCC(=O)N1CCCN(C2=NS(=O)(=O)C(c3ccc(F)cc3)=C2C)CC1 , RP-LC retention time observed: 825

Note to self: RP-LC retention time recorded for O=C(Nc1cnc(-c2cccc(Cl)c2)nc1)c1ccsc1 was 1030

RP-LC retention time recorded for this compound, CC(=O)N1CCc2c([nH]c3ccccc23)C12C(=O)N(CC(C)C)c1ccc(Br)cc12 (centres undefined) , is 974

The compound listed as Cc1ccc(NC(=O)N2CCCCC2)cc1[N+](=O)[O-] shows RP-LC retention time equal to 916

Measured RP-LC retention time of Cc1ccc(-c2cc3c(=O)n(Cc4noc(CN5CCCC(C)C5)n4)ccn3n2)cc1 (centres undefined) : 705

Form: compound = Cc1ccc(S(=O)(=O)N2CCC3(CC2)NCCN=C3NCc2cccc(F)c2)c(C)c1 ; RP-LC retention time = 750

Summary for this compound, CC(=O)Nc1ccc(Nc2nc3ccccc3nc2NS(=O)(=O)c2cccs2)cc1 : RP-LC retention time is 794
